Values were extracted from patent US8314268B2.

A collection of compounds and their measured inhibition at 100 µM
# STUDY_TARGET: cyclooxygenase-1 (COX-1) (Rattus norvegicus, UniProt Q63921)
# Construct: Aliquots of heparinized blood (500 μl) were preincubated with 100 μM concentration of the tested compounds; from tissue; host or cells: rat whole blood (heparinized, from the abdominal aorta)
# Sequence (Q63921 27-602): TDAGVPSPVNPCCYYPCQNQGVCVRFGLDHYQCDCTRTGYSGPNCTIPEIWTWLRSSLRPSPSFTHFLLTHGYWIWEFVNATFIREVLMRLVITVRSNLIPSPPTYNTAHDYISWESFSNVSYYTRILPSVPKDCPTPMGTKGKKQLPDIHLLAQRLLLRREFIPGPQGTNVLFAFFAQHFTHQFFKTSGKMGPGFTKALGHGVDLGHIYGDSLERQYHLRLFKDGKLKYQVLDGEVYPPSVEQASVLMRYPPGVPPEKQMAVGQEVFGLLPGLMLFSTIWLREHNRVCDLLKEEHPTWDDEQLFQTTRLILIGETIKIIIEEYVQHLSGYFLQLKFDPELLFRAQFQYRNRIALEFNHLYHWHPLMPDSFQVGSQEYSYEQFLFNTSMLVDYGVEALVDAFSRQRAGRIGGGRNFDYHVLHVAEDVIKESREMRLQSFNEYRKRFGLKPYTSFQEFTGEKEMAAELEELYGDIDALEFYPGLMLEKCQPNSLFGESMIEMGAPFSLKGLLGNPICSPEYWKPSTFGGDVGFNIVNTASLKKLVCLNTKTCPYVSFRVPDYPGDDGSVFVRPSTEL
# PROCEDURE_TEXT: Inhibition of cyclooxygenase-1 (COX-1) in rat whole blood (TxB2 production)
# Format: cell-based
# MEASUREMENT_CONDITIONS: 100 μM; rat whole blood, calcium ionophore A23187-induced TxB2 production; read-out: % COX-1 inhibitory activity
Quick reminder: number only, in %, skip the unit.

The cases that follow already have their inhibition at 100 µM on record.
>  <COMPOUND>
O=C(O)C1(c2ccc(-c3ccc(Cl)c(Cl)c3)c(F)c2)CC1

>  <STUDY_TARGET>
cyclooxygenase-1 (COX-1) (Rattus norvegicus, UniProt Q63921)

>  <inhibition at 100 µM (%)>
0.5

$$$$
>  <COMPOUND>
O=C(O)C1(c2ccc(-c3ccc(C(F)(F)F)cc3)c(F)c2)CC1

>  <STUDY_TARGET>
cyclooxygenase-1 (COX-1) (Rattus norvegicus, UniProt Q63921)

>  <inhibition at 100 µM (%)>
0

$$$$
>  <COMPOUND>
O=C(O)C1(c2ccc(-c3ccc(F)c(Cl)c3)c(F)c2)CC1

>  <STUDY_TARGET>
cyclooxygenase-1 (COX-1) (Rattus norvegicus, UniProt Q63921)

>  <inhibition at 100 µM (%)>
5.5

$$$$
>  <COMPOUND>
O=C(O)C1(c2ccc(-c3cccc(OC(F)(F)F)c3)c(F)c2)CC1

>  <STUDY_TARGET>
cyclooxygenase-1 (COX-1) (Rattus norvegicus, UniProt Q63921)

>  <inhibition at 100 µM (%)>
8.3

$$$$

Req: Give the reported value of inhibition at 100 µM for this record: O=C(O)C1(c2ccc(-c3ccc(O)cc3)c(F)c2)CC1
Resp: 0

Req: Give the reported value of inhibition at 100 µM for this record: O=C(O)C1(c2ccc(-c3ccc(OC4CCC(C(F)(F)F)CC4)cc3)c(F)c2)CC1 (stereo not shown)
Resp: 0.8

Req: Give the reported value of inhibition at 100 µM for this record: O=C(O)C1(c2ccc(-c3ccc(F)c(F)c3)c(F)c2)CC1
Resp: 4.8

Req: Give the reported value of inhibition at 100 µM for this record: O=C(O)C1(c2ccc(-c3cccc(C(F)(F)F)c3)c(F)c2)CC1
Resp: 0

Req: Give the reported value of inhibition at 100 µM for this record: CC(C)(C(=O)O)c1ccc(-c2ccc(C3CCCCC3)cc2)c(F)c1
Resp: 5.2

Req: Give the reported value of inhibition at 100 µM for this record: O=C1CCC(c2ccc(-c3ccc(C4(C(=O)O)CC4)cc3F)cc2)CC1
Resp: 6.1

Req: Give the reported value of inhibition at 100 µM for this record: O=C(O)C1(c2ccc(-c3ccc(OC4CCOCC4)cc3)c(F)c2)CC1
Resp: 0.4

Req: Give the reported value of inhibition at 100 µM for this record: O=C(O)C1(c2ccc(-c3ccc(C4CCOCC4)cc3)c(F)c2)CC1
Resp: 0.3

Req: Give the reported value of inhibition at 100 µM for this record: O=C(O)C1(c2ccc(-c3ccc(OC(F)(F)F)cc3)c(F)c2)CC1
Resp: 2.6
